B1: glmS ribozyme (parent)
chain: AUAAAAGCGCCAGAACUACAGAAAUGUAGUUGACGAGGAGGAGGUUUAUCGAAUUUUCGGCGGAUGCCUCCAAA

variants of: B1; experiment: self-cleavage kobs at 640 uM GlcN6P; higher = faster cleavage; RNA array; details: with glucosamine-6-phosphate
This sample holds only a part of the variants without activity.
Reported Endpoint: self-cleavage kobs at 640 uM GlcN6P (s⁻¹)
Please respond with the number in s⁻¹ and leave the unit unwritten.

**Query** # return recorded self-cleavage kobs at 640 uM GlcN6P for input C58G U69G
**Result** 5.7e-05

**Query** # return recorded self-cleavage kobs at 640 uM GlcN6P for input U30C C70G
**Result** 6.49e-05

**Query** # return recorded self-cleavage kobs at 640 uM GlcN6P for input A53C C70U
**Result** 0.000893

**Query** # return recorded self-cleavage kobs at 640 uM GlcN6P for input U69C C70G
**Result** 4.82e-05

**Query** # return recorded self-cleavage kobs at 640 uM GlcN6P for input A14G U54C U69C
**Result** 0.0011

**Query** # return recorded self-cleavage kobs at 640 uM GlcN6P for input U45A C71A
**Result** 0.000907

**Query** # return recorded self-cleavage kobs at 640 uM GlcN6P for input A14G A39C
**Result** 0.00281

**Query** # return recorded self-cleavage kobs at 640 uM GlcN6P for input C11G C34U U69G
**Result** 0.000508

**Query** # return recorded self-cleavage kobs at 640 uM GlcN6P for input A6U A33G U69G
**Result** 9.46e-05

**Query** # return recorded self-cleavage kobs at 640 uM GlcN6P for input C11A U54A
**Result** 5.49e-05

**Query** # return recorded self-cleavage kobs at 640 uM GlcN6P for input A33C U54G C71U
**Result** 7.35e-05

**Query** # return recorded self-cleavage kobs at 640 uM GlcN6P for input A15U G32C
**Result** 3.14e-05

**Query** # return recorded self-cleavage kobs at 640 uM GlcN6P for input A39U U65C
**Result** 0.00114
